Attribute: inhibition in vivo at 50 mg/kg
Tested on: Rattus norvegicus
protocolSummary: Antiinflammatory activity in Wister albino rat assessed as inhibition of carrageenan-induced paw edema at 50 mg/kg, ip administered 1 hr before carrageenan challenge measured after 4 hrs by plethysmometer relative to control
Assay type: functional
measurementSetup: route intraperitoneal
# number only, unit % dropped from output

Lookup: Look up inhibition in vivo at 50 mg/kg: "N#Cc1c(-c2ccc(N3CCCCC3)cc2)c(C#N)c2n(Cc3ccccc3)c([S-])n[n+]2c1N"
Found: 67.4

Lookup: Look up inhibition in vivo at 50 mg/kg: "CCOC(=O)c1c(-c2ccc(C)cc2)cc(-c2ccccc2)nc1N1CCCCC1"
Found: 78

Lookup: Look up inhibition in vivo at 50 mg/kg: "CCOC(=O)c1c(-c2ccc(Cl)cc2)cc(-c2ccccc2)nc1Nc1ccc(Cl)cc1"
Found: 65.2

Next:
Lookup: Look up inhibition in vivo at 50 mg/kg: "CCOC(=O)c1c(-c2ccc(Cl)cc2)cc(-c2ccccc2)nc1Nc1ccccc1"
Found: 83.8

Lookup: Look up inhibition in vivo at 50 mg/kg: "CCOC(=O)c1c(-c2ccc(Cl)cc2)cc(-c2ccccc2)nc1N1CCCCC1"
Found: 70.1

Lookup: Look up inhibition in vivo at 50 mg/kg: "CCOC(=O)c1c(-c2ccc(F)cc2)cc(-c2ccccc2)nc1Nc1ccccc1"
Found: 76

Lookup: Look up inhibition in vivo at 50 mg/kg: "CCOC(=O)c1c(-c2ccc(Cl)cc2)cc(-c2ccccc2)nc1Nc1ccc(OC)cc1"
Found: 38.9

Recorded values, source ChEMBL document CHEMBL1949547.
